Recorded values, source patent US20100120715A1.

- TARGET_SYSTEM: Class A ESBL SHV-5 (Klebsiella pneumoniae)
- Construct: made in house; host or cells: E. coli BL21(DE3) for purified enzyme; E. coli cells containing SHV-5 for extracts
- Sequence (P0A3M1 22-286): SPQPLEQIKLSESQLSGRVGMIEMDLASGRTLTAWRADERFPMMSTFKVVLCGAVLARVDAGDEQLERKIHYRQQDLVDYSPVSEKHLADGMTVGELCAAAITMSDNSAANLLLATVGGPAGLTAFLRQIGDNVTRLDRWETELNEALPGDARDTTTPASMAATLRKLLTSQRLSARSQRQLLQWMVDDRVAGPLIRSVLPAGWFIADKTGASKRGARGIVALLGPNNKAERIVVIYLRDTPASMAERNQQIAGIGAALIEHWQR
- Assay type: biochemical, E. coli
- EXPERIMENTAL_CONDITIONS: purified beta-lactamase enzyme (Examples 1 and 31-64); nitrocefin 100 μM, PBS pH 7.0; read-out: SHV-5 IC50 Range
# reported IC50; entries follow

query: Data request, read-out IC50, for Cc1nc(-c2cccc(C(=O)N[C@@H](Cc3cccc(C(=O)O)c3O)B(O)O)c2)no1 [Example 47]
result: 0.01 to 0.1 µM

query: Data request, read-out IC50, for O=C(N[C@@H](Cc1cccc(C(=O)O)c1O)B(O)O)c1cn2ccsc2n1 [Example 56]
result: 0.01 to 0.1 µM

query: Data request, read-out IC50, for NCCC(=O)N[C@@H](Cc1cccc(C(=O)O)c1O)B(O)O.O=CO [Example 38, formate salt]
result: > 1 µM

query: Data request, read-out IC50, for CC(=O)Nc1nc(CC(=O)N[C@@H](Cc2cccc(C(=O)O)c2O)B(O)O)cs1 [Example 63]
result: < 0.01 µM

query: Data request, read-out IC50, for COc1ccccc1C(=O)N[C@@H](Cc1cccc(C(=O)O)c1O)B(O)O [Example 34]
result: 0.1 to 1 µM

query: Data request, read-out IC50, for NCc1cccc(C(=O)N[C@@H](Cc2cccc(C(=O)O)c2O)B(O)O)c1.O=CO [Example 42]
result: 0.1 to 1 µM

query: Data request, read-out IC50, for O=C(Cc1ccccn1)N[C@@H](Cc1cccc(C(=O)O)c1O)B(O)O.O=CO [Example 61, formate salt]
result: < 0.01 µM

query: Data request, read-out IC50, for O=C(Cn1cccn1)N[C@@H](Cc1cccc(C(=O)O)c1O)B(O)O [Example 40]
result: 0.01 to 0.1 µM

###

Target or system Class C P99 AmpC (Enterobacter cloacae): recorded pIC50 listed per item.
pIC50: −log10 of the molar value.

Use these answered entries as a reference point.
O=C(N[C@@H](Cc1cccc(C(=O)O)c1O)B(O)O)c1cccc(-n2ccnc2)c1 [Example 57]; > 8.00
O=C(N[C@@H](Cc1cccc(C(=O)O)c1O)B(O)O)c1ccccc1O [Example 35]; > 8.00
O=C(N[C@@H](Cc1cccc(C(=O)O)c1O)B(O)O)c1cccnc1 [Example 51]; > 8.00
O=C(O)c1cccc(C[C@H](NC(=O)c2c(Cl)cccc2Cl)B(O)O)c1O [Example 43]; > 8.00
CC(=O)N1CCC(C(=O)N[C@@H](Cc2cccc(C(=O)O)c2O)B(O)O)CC1 [Example 49]; 7.00 to 8.00
O=C(Cc1cc(Br)cs1)N[C@@H](Cc1cccc(C(=O)O)c1O)B(O)O [Example 9]; > 8.00

query: Give recorded pIC50 with Class C P99 AmpC (Enterobacter cloacae) for the following compound: NCc1cccc(C(=O)N[C@@H](Cc2cccc(C(=O)O)c2O)B(O)O)c1.O=CO [Example 42]
Sequence (P05364 21-381): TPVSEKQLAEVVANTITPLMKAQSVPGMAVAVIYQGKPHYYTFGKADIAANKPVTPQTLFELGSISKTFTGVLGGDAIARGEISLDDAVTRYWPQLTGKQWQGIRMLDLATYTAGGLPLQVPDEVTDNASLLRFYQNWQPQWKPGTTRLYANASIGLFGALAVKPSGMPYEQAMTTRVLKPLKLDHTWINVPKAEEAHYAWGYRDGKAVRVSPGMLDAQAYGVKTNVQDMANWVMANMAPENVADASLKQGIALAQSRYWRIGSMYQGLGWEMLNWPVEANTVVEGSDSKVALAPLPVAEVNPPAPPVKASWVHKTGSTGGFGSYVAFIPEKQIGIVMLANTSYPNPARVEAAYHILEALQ
result: > 8.00

query: Give recorded pIC50 with Class C P99 AmpC (Enterobacter cloacae) for the following compound: O=C(CO)N[C@@H](Cc1cccc(C(=O)O)c1O)B(O)O [Example 19]
result: 6.00 to 7.00

query: Give recorded pIC50 with Class C P99 AmpC (Enterobacter cloacae) for the following compound: O=C(CN1C(=O)c2ccccc2C1=O)N[C@@H](Cc1cccc(C(=O)O)c1O)B(O)O [Example 45]
result: > 8.00

query: Give recorded pIC50 with Class C P99 AmpC (Enterobacter cloacae) for the following compound: O=C(O)c1cccc(C[C@H](NC(=O)C2CCCC2)B(O)O)c1O [Example 15]
result: > 8.00

query: Give recorded pIC50 with Class C P99 AmpC (Enterobacter cloacae) for the following compound: O=C(N[C@@H](Cc1cccc(C(=O)O)c1O)B(O)O)c1ccno1 [Example 46]
result: > 8.00

query: Give recorded pIC50 with Class C P99 AmpC (Enterobacter cloacae) for the following compound: O=C(N[C@@H](Cc1cccc(C(=O)O)c1O)B(O)O)c1ccc(O)cc1 [Example 36]
result: > 8.00
